Where do the numbers come from? From patent US20070066551.

test system: IgE (Homo sapiens), P01854-1; assay: filter; conditions: dRmY; 2'-deoxy-5mC at 11; dC at 12 and 22; DPBS with Ca/Mg, BSA, ssDNA, tRNA; parent 13 nM
Sequence (P01854 other isoform, or with tags, fused parts or gaps): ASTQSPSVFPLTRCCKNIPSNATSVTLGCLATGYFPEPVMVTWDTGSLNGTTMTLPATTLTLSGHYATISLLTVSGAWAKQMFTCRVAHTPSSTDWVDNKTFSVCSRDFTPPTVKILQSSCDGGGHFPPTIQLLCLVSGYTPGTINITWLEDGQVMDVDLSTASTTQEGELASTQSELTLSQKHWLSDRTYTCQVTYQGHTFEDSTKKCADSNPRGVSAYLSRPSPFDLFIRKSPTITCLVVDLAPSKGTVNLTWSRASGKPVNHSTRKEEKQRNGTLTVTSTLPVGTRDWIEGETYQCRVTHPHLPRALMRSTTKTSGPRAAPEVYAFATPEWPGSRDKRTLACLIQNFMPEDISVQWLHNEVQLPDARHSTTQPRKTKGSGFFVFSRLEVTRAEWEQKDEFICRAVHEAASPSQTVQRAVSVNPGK
READOUT NAME: pKd
Would you please state pKd, meaning minus log10 of the concentration in mol/L, as a bare number?

Per the record, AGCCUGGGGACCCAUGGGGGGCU [ARC926] has pKd of 8.26
